Tested on: barnyardgrass (Echinochloa crus-galli)
Test Description: Test A preemergence, barnyardgrass
Format: in vivo
Condition Context: Preemergence, 125 g ai/ha; visual injury on 0 to 100 scale (0 no effect, 100 complete control), approximately 10 days
Assay Endpoint: Barnyardgrass plant response rating
Just the number, please, no unit attached.

> print(dat)
                                   compound                             test.system  value
1  C#CCN(CC#C)C(=O)c1cc(N(S(=O)(=O)C(F)(F)F)S(=O)(=O)C(F)(F)F)c(C)cc1C [Compound 181]  barnyardgrass (Echinochloa crus-galli)     90
2  COC(=O)N(c1cc(C(=O)N2CCCC(OC)C2)c(C)cc1C)S(=O)(=O)C(F)(F)F (centres unmarked) [Compound 115]  barnyardgrass (Echinochloa crus-galli)    100
3  CCCCC(=O)OCN(c1cc(C2=NOC3(CCCC3)C2)c(C)cc1C)S(=O)(=O)C(F)(F)F [Compound 143]  barnyardgrass (Echinochloa crus-galli)     90
4  Cc1cc(C)c(N(S(=O)(=O)C(F)(F)F)S(=O)(=O)C(F)(F)F)cc1C(=O)N1CCCC(F)C1 (centres unmarked) [Compound 118]  barnyardgrass (Echinochloa crus-galli)     90
5  Cc1cc(C)c(-c2cc(C(F)(F)F)nn(C)c2=O)cc1NS(=O)(=O)C(F)(F)F [Compound 71]  barnyardgrass (Echinochloa crus-galli)      0
6  Cc1cc(C(F)(F)F)c(C(=O)N2CCCCC2)cc1NS(=O)(=O)C(F)(F)F [Compound 180]  barnyardgrass (Echinochloa crus-galli)      0

Record Cc1cc(C)c(N(S(C)(=O)=O)S(=O)(=O)C(F)(F)F)cc1-c1cc(C(C)C)nn(C)c1=O [Compound 39] . Reported Barnyardgrass plant response rating: 40

Query Cc1c(NS(=O)(=O)C(F)(F)F)cc(C(=O)N2CC(C)OC(C)C2)c(C)c1F (centres unmarked) [Compound 116] yields Barnyardgrass plant response rating of 30
